Metric: melting point

Illustrative cases are given below, each with its answer.
CS(=O)(=O)c1ccc(-n2nc(-c3ccc(F)cc3)cc2C(F)(F)F)cc1 ... 158 to 160 °C
CC(C)c1ccc(N(C)C(=O)Cn2cnc3[nH]c(=O)n(C)c(=O)c32)cc1 ... 271 to 273 °C
CC(C)N(CCOc1ccc(CC2SC(=O)NC2=O)cc1)c1nc2ccccc2o1 (stereo not given) ... 66 °C
Nc1cccc(-c2ccc(CCN3CCN(C4CCc5ccccc5C4)CC3)cc2)n1 (stereo not given) ... > 220 °C

Then there is this molecule:
Could you tell me which melting point is on file for O=C(Cc1ccccc1C(=O)O)Nc1cccc(/C=C/c2csc(C3CCC3)n2)c1 ? 198 to 199 °C

---

Form field: melting point (one value per entry).

C[C@@H](n1cnc2cc(C#N)ccc2c1=O)[C@](O)(Cn1cncn1)c1ccc(F)cc1F ... 168 to 169 °C
Ic1ccc2c(c1)ncn2-c1cccc(-c2cncnc2)c1 ... 197 to 199 °C
Cc1n[nH]c(NCCCCOc2cccc(CN3CCCCC3)c2)n1 ... 138 to 139 °C
O=C(O)c1cc(Cl)cc2ccoc12 ... 212 to 215 °C
CCN1CCCC1CNC(=O)c1cc(S(N)(=O)=O)cc2c1OC(C)C2 (stereo unspecified) ... 164 to 165 °C

Can you share its melting point? I mean this molecule: CCN1C(=O)CCC(C)(C)c2cc([N+](=O)[O-])ccc21 67 °C

Next record, please: CCOCc1nc2c(N)nc3cc(OCCCn4cccc4)ccc3c2n1CC(C)C 160 to 162 °C

Can you handle Cc1c(N=C2NCCN2)cccc1N(C)C next? 116 to 118 °C

Now the molecule Nc1nc(N)c(Br)c(OCCOCP(=O)(O)O)n1 218 °C

Again, but for O=C1CCC(=O)c2ccccc2N1 168 to 170 °C

# repeat for CC(C)(C)OC(=O)NCc1ccc(-n2c(-c3cccnc3N)nc3cc(Br)cnc32)cc1 129 to 131 °C

---

compounds and their reported melting point

COc1cccc2c1C(=O)c1c(cc3c(c1O)CCC(C(C)=O)C3)C2=O (stereo not given) ... 222 to 225 °C
CCOC(=O)c1cn(C2COC2)c2c(C)c(F)c(F)cc2c1=O ... 157 to 165 °C
CC(C)(C)OC(=O)NCC1CN[C@@H]2CCO[C@H]12 (relative stereo) ... 59 to 67 °C
CC(C)(C)OC(=O)NC1CCN(C(=O)[C@@]23C[C@@H](c4ccccc42)c2ccc(Cl)cc23)CC1 ... 154 to 156 °C

Next, consider the following compound.
What measured melting point goes with COc1ccc(/C=C/c2nc3c(c(=O)n(C)c(=O)n3C)n2C)c(OC)c1OC ? 187 to 188 °C

---

Form field: melting point (one value per entry).

Nc1nc(-c2ccc(Cl)cc2C(=O)c2ccccc2)c(CN2C(=O)c3ccccc3C2=O)s1 ... 253 to 255 °C
NCCNC(=O)c1ccc2c(c1)OCO2 ... 120 to 123 °C
O=c1[nH]c2cc([N+](=O)[O-])ccc2c(=O)n1N1CC=C(c2ccc(Cl)cc2)CC1 ... 210 to 212 °C
CCON=CNC(=O)c1ccc(C2=NOC(c3cc(Cl)cc(Cl)c3)(C(F)(F)F)C2)cc1C (centres undefined) ... 143 to 146 °C
COc1ccccc1NC1c2cc(NC(=O)CC(C)(C)C)c(C)c(C)c2OC1(C)C (centres undefined) ... 184 to 185 °C
CC(=O)c1ccc(C(=C2CC(C)(C)CC(C)(C)C2)c2ccc(O)cc2)cc1 ... 195 to 196 °C

What does the record list as melting point for COc1ccc(Cl)c(Cc2c(Cl)nc(N3CCOCC3)nc2NS(=O)(=O)c2ccc(C(C)(C)C)cc2)c1 ? 159 to 162 °C

Please answer likewise for CCN(CC)CCCCC(=O)c1cc(Cl)c(N)cc1OCc1cc(OC)cc(OC)c1 105 to 107 °C

Same question, CCCCc1nc2c(N)nc3ccccc3c2n1CCCCCCl this time 144 to 146 °C
